- TESTED ON: NS3 protease (Hepacivirus C, UniProt C1KIQ2, D168V)
- Sequence (C1KIQ2 entry or part of it D168V): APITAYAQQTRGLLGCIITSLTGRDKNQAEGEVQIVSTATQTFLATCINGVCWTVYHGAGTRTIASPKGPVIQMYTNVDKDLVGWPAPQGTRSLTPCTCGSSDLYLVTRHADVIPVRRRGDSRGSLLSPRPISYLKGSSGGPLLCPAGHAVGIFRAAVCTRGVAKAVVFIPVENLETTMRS
- ASSAY REMARKS: Inhibition of Hepatitis C virus genotype 1a full length NS3/2K-NS4A protease D168V mutant using Ac-DED(Edans)EEAbupsi[COO]ASK(Dabcyl)-NH2 as substrate incubated for 10 mins prior to substrate addition by FRET analysis
Property: Ki; scope: individual compounds
// return numeric value only (unit: nM, not printed)

## Task Tell me the measured Ki of C=Cc1cc([C@H](NC(=O)[C@@H](NC(=O)OC(C)(C)C)C(C)(C)C)C(=O)Nc2cccc(C(=O)NS(=O)(=O)c3ccc(C(F)(F)F)cc3)c2)ccc1Oc1cc(OC)nc(-c2ccccc2)n1 , please.
## Result 110

Others:
## Task Tell me the measured Ki of C=Cc1cc(C(NC(=O)OC(C)(C)C)C(=O)Nc2cccc(C(=O)NS(=O)(=O)c3ccc(C(F)(F)F)cc3)c2)ccc1Oc1cc(OC)nc(-c2ccccc2)n1 (configuration not stated) , please.
## Result 180

---

- ASSAY REMARKS: Half life in human liver microsomes at 1 uM after 5 mins by LC/MS/MS analysis
- RECORDED CONDITIONS: liver microsomes
Property: half-life at 5 min, 1 µM; scope: individual molecules
// return numeric value only (unit: h, not printed)

## Task Tell me the measured half-life at 5 min, 1 µM of C=Cc1cc(C(NC(=O)NC(C)(C)C)C(=O)Nc2cccc(C(=O)NS(=O)(=O)c3ccc(C(F)(F)F)cc3)c2)ccc1Oc1cc(OC)nc(-c2ccccc2)n1 (centres undefined) , please.
## Result 3.23

## Task Tell me the measured half-life at 5 min, 1 µM of C=Cc1cc([C@H](NC(=O)[C@@H](NC(=O)OC(C)(C)C)C(C)(C)C)C(=O)Nc2cccc(C(=O)NS(=O)(=O)c3ccc(C(F)(F)F)cc3)c2)ccc1Oc1cc(OC)nc(-c2ccccc2)n1 , please.
## Result 0.283

## Task Tell me the measured half-life at 5 min, 1 µM of C=Cc1cc(C(NC(=O)OC(C)(C)C)C(=O)Nc2ccc(C(=O)NS(=O)(=O)c3ccc(C(F)(F)F)cc3)cc2)ccc1Oc1cc(OC)nc(-c2ccccc2)n1 (centres undefined) , please.
## Result 0.917

Please examine the following record next.
## Task Tell me the measured half-life at 5 min, 1 µM of C=Cc1cc(C(NC(=O)OC(C)(C)C)C(=O)Nc2cccc(C(=O)NS(=O)(=O)c3ccc(C(F)(F)F)cc3)c2)ccc1Oc1cc(OC)nc(-c2ccccc2)n1 (centres undefined) , please.
## Result 1.95

---

- ASSAY REMARKS: Half life in human liver microsomes at 1 uM after 5 mins by LC/MS/MS analysis
- RECORDED CONDITIONS: microsomes
METRIC: half-life at 5 min, 1 µM (min)
// return numeric value only (unit: min, not printed)

## Task Tell me the measured half-life at 5 min, 1 µM of C=CCCCS(=O)(=O)NC(=O)c1ccccc1NC(=O)[C@@H](NC(=O)OC(C)(C)C)c1ccc(Oc2cc(OC)nc(-c3ccccc3)n2)c(C=C)c1 , please.
## Result 21

Others:
## Task Tell me the measured half-life at 5 min, 1 µM of C=Cc1cc(C(NC(=O)OC(C)(C)C)C(=O)Nc2ccccc2C(=O)NS(=O)(=O)c2ccc(C(F)(F)F)cc2)ccc1Oc1cc(OC)nc(-c2ccccc2)n1 (configuration not stated) , please.
## Result 88

---

- TESTED ON: NS3 protease (Hepacivirus C, UniProt C1KIQ2, R155K)
- Sequence (C1KIQ2 entry or part of it R155K): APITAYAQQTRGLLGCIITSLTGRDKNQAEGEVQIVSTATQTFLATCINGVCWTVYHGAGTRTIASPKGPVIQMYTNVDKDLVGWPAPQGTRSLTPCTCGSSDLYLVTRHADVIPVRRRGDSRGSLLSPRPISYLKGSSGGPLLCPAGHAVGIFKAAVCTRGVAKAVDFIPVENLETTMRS
- ASSAY REMARKS: Inhibition of Hepatitis C virus genotype 1a full length NS3/2K-NS4A protease R155K mutant using Ac-DED(Edans)EEAbupsi[COO]ASK(Dabcyl)-NH2 as substrate incubated for 10 mins prior to substrate addition by FRET analysis
Property: pKi; scope: individual molecules
Remember, pKi is on a log scale: it is -log10 of the molar concentration.

## Task Form field - read-out: pKi; system: NS3 protease (Hepacivirus C, UniProt C1KIQ2, R155K); submitted item: C=Cc1cc(C(NC(=O)OC(C)(C)C)C(=O)Nc2cccc(C(=O)NS(=O)(=O)c3ccc(C(F)(F)F)cc3)c2)ccc1Oc1cc(OC)nc(-c2ccccc2)n1 (configuration not stated)
## Result 6.24

Others:
## Task Form field - read-out: pKi; system: NS3 protease (Hepacivirus C, UniProt C1KIQ2, R155K); submitted item: C=Cc1cc([C@H](NC(=O)[C@@H](NC(=O)OC(C)(C)C)C(C)(C)C)C(=O)Nc2cccc(C(=O)NS(=O)(=O)c3ccc(C(F)(F)F)cc3)c2)ccc1Oc1cc(OC)nc(-c2ccccc2)n1
## Result 6.68

---

- ASSAY REMARKS: in vitro
- RECORDED CONDITIONS: human, microsomes
METRIC: microsomal CLint at 5 min, 1 µM (µL/min/mg)
// return numeric value only (unit: µL/min/mg, not printed)

## Task Tell me the measured microsomal CLint at 5 min, 1 µM of C=Cc1cc(C(NC(=O)OC(C)(C)C)C(=O)Nc2ccccc2C(=O)NS(=O)(=O)c2ccc(C(F)(F)F)cc2)ccc1Oc1cc(OC)nc(-c2ccccc2)n1 (configuration not stated) , please.
## Result 16

Please examine the following record next.
## Task Tell me the measured microsomal CLint at 5 min, 1 µM of C=CCCCS(=O)(=O)NC(=O)c1ccccc1NC(=O)[C@@H](NC(=O)OC(C)(C)C)c1ccc(Oc2cc(OC)nc(-c3ccccc3)n2)c(C=C)c1 , please.
## Result 66

---

- ASSAY REMARKS: in vitro
- RECORDED CONDITIONS: human, liver microsomes
METRIC: microsomal CLint at 5 min, 1 µM (µL/min/mg)
// return numeric value only (unit: µL/min/mg, not printed)

## Task Tell me the measured microsomal CLint at 5 min, 1 µM of C=Cc1cc(C(NC(=O)OC(C)(C)C)C(=O)Nc2cccc(C(=O)NS(=O)(=O)c3ccc(C(F)(F)F)cc3)c2)ccc1Oc1cc(OC)nc(-c2ccccc2)n1 (centres undefined) , please.
## Result 12

## Task Tell me the measured microsomal CLint at 5 min, 1 µM of C=Cc1cc(C(NC(=O)NC(C)(C)C)C(=O)Nc2cccc(C(=O)NS(=O)(=O)c3ccc(C(F)(F)F)cc3)c2)ccc1Oc1cc(OC)nc(-c2ccccc2)n1 (centres undefined) , please.
## Result 7

## Task Tell me the measured microsomal CLint at 5 min, 1 µM of C=Cc1cc([C@H](NC(=O)[C@@H](NC(=O)OC(C)(C)C)C(C)(C)C)C(=O)Nc2cccc(C(=O)NS(=O)(=O)c3ccc(C(F)(F)F)cc3)c2)ccc1Oc1cc(OC)nc(-c2ccccc2)n1 , please.
## Result 80

## Task Tell me the measured microsomal CLint at 5 min, 1 µM of C=Cc1cc(C(NC(=O)OC(C)(C)C)C(=O)Nc2ccc(C(=O)NS(=O)(=O)c3ccc(C(F)(F)F)cc3)cc2)ccc1Oc1cc(OC)nc(-c2ccccc2)n1 (centres undefined) , please.
## Result 25

---

Property: Papp A→B at 10 µM; scope: individual molecules
- ASSAY REMARKS: Apparent permeability from apical to basolateral side of human Caco2 cells at 10 uM
- RECORDED CONDITIONS: Caco-2
// return numeric value only (unit: ×10⁻⁶ cm/s, not printed)

Worked cases, answers included:
## Task Tell me the measured Papp A→B at 10 µM of C=Cc1cc(C(NC(=O)OC(C)(C)C)C(=O)Nc2ccccc2C(=O)NS(=O)(=O)c2ccc(C(F)(F)F)cc2)ccc1Oc1cc(OC)nc(-c2ccccc2)n1 (centres undefined) , please.
## Result 4

## Task Tell me the measured Papp A→B at 10 µM of C=Cc1cc(C(NC(=O)OC(C)(C)C)C(=O)Nc2cccc(C(=O)NS(=O)(=O)c3ccc(C(F)(F)F)cc3)c2)ccc1Oc1cc(OC)nc(-c2ccccc2)n1 (centres undefined) , please.
## Result 1

## Task Tell me the measured Papp A→B at 10 µM of C=CCCCS(=O)(=O)NC(=O)c1ccccc1NC(=O)[C@@H](NC(=O)OC(C)(C)C)c1ccc(Oc2cc(OC)nc(-c3ccccc3)n2)c(C=C)c1 , please.
## Result 1

Please examine the following record next.
## Task Tell me the measured Papp A→B at 10 µM of C=Cc1cc([C@H](NC(=O)[C@@H](NC(=O)OC(C)(C)C)C(C)(C)C)C(=O)Nc2cccc(C(=O)NS(=O)(=O)c3ccc(C(F)(F)F)cc3)c2)ccc1Oc1cc(OC)nc(-c2ccccc2)n1 , please.
## Result 9.7

---

Property: pKi; scope: individual compounds
- TESTED ON: NS3 protease (Hepacivirus C, UniProt C1KIQ2, A156T)
- Sequence (C1KIQ2 entry or part of it A156T): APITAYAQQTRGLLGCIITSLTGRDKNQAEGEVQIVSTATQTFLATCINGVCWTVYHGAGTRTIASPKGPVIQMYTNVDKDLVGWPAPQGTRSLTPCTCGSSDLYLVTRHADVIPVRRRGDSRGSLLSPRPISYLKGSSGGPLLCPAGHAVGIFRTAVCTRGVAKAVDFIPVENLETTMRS
- ASSAY REMARKS: Inhibition of Hepatitis C virus genotype 1a full length NS3/2K-NS4A protease A156T mutant using Ac-DED(Edans)EEAbupsi[COO]ASK(Dabcyl)-NH2 as substrate incubated for 10 mins prior to substrate addition by FRET analysis
Remember, pKi is on a log scale: it is -log10 of the molar concentration.

## Task Tell me the measured pKi of C=Cc1cc([C@H](NC(=O)[C@@H](NC(=O)OC(C)(C)C)C(C)(C)C)C(=O)Nc2cccc(C(=O)NS(=O)(=O)c3ccc(C(F)(F)F)cc3)c2)ccc1Oc1cc(OC)nc(-c2ccccc2)n1 , please.
## Result 7.28

Please examine the following record next.
## Task Tell me the measured pKi of C=Cc1cc(C(NC(=O)OC(C)(C)C)C(=O)Nc2cccc(C(=O)NS(=O)(=O)c3ccc(C(F)(F)F)cc3)c2)ccc1Oc1cc(OC)nc(-c2ccccc2)n1 (configuration not stated) , please.
## Result 6.96
